procedure_text: small-molecule binders of probe aNOTCH2, primary screen, biochemical, small-molecule microarray, 635/667 nm fluorescence (AID 1121);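 further: score merges feature fluorescence read at 667 nm with its signal to noise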
settings: higher = more signal
Would you kindly list composite z-score for each of these compounds?

Task: Sample COc1ccc(C(=O)Nc2cccc(CN3C(=O)[C@@]4(O[C@@H](CC(=O)N(CCO)Cc5ccccc5)[C@H]([Si](C)(C)c5ccc(OC)cc5)[C@H]4C)c4ccccc43)c2)cc1 — what was its composite z-score?
Result: -0.0868

Task: So what does the record say about composite z-score for C=CCC(OC(C)=O)[C@@H]1[C@@H](N(Cc2ccc(-c3ccccc3)cc2)C(=O)Cc2ccc(F)cc2)c2cc(OCCCO)ccc2N1C(=O)Cc1ccc2ccccc2c1 (some centres not stated) ?
Result: -0.046

Task: Requested field: composite z-score. Item: CS(=O)(=O)CCOC(=O)C1=CC(CCCO)=CC(C2CC2)N(Cc2cccc(OC(F)(F)F)c2)C=C1C(=O)OCCS(C)(=O)=O (configuration not stated)
Result: -0.133

Task: Fill in: composite z-score of C=C[C@@H](C)[C@@H](OC(=O)Nc1ccc(SC)cc1)c1ccc(OCCO)cc1 is ___
Result: -0.0814

Task: Sample Cc1ccc(S[C@]2(C(=O)NC(C)C)CC(=O)N(C(C)C)[C@@H]2c2ccc(CO)cc2I)cc1 — what was its composite z-score?
Result: -0.0686

Task: Look up composite z-score: Cc1ccc([C@H]2C(C(=O)O)=C[C@@H](C(C)(C)C)N2S(=O)(=O)c2ccc(C)cc2)cc1
Result: 0.0746

Task: Item Cc1nc2cc(Br)ccc2c(=O)n1Cc1cccc(O)c1 has what recorded composite z-score?
Result: -0.12

###

procedure_text: PSAC antagonists in infected red cells, primary screen, cell-based, P. falciparum Indochina, OD700, 1 h (AID 1154)
settings: P. falciparum Indochina infected RBC osmotic lysis, called active from +8 up or from −8 down
Activity calls are given as the source filed them.
Would you mind answering with one of these outcomes? active, inactive

Task: Record request — test call for C=CCC(OC(C)=O)[C@@H]1[C@@H](N(Cc2ccc(-c3cccc(C(F)(F)F)c3)o2)C(=O)c2cccc3ccccc23)c2cc(OCCCO)ccc2N1C(=O)Cc1ccc(OC)cc1 (some centres undefined)
Result: inactive

Task: Dear all, I need the recorded test outcome for CC(C)N1CC=CC23O[C@@H]4/C=C\CCCOC(=O)C4[C@H]2C(=O)N(CCCCCCO)[C@@H]3C1=O (some centres undefined) , thank you.
Result: inactive

Task: // return assay outcome for CCC(CC)C(O)C1C=CC2C(=O)N(c3ccccc3)C(=O)C2N1Nc1ccc([N+](=O)[O-])cc1 (centres undefined)
Result: inactive

Task: Please share the test call associated with CN(C)C(=O)[C@]1(CCS(=O)(=O)c2ccccc2)N=C(c2ccc(OCCCO)cc2)O[C@@H]1c1ccccc1 .
Result: active

###

procedure_text: small-molecule microarray binders of probe aLefty2, primary screen, biochemical, biotinylated probe, 635/667 nm fluorescence (AID 1094);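 further: score merges spot fluorescence near 667 nm with spot signal-to-noise ratio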
settings: higher = more signal
metric: composite z-score

Task: Quick check: composite z-score of CCCNC(=O)[C@@]1(C)c2ccccc2C(=O)N(Cc2ccccc2)[C@H]1c1ccc(CO)cc1 ?
Result: 0.0844

Task: Entry C=CCC(OC(C)=O)[C@@H]1[C@@H](N(Cc2cccc3ccccc23)C(=O)c2cccc3ccccc23)c2cc(OCCCO)ccc2N1C(=O)c1ccc2ccccc2c1 (stereo partly drawn) : reported composite z-score = ?
Result: -0.156

Task: Please give the measured composite z-score for this compound: C=C(COC)C(=O)CC[C@H](OC(C)=O)c1ccc(OCCO)cc1
Result: -0.211

Task: For CN1C(=O)C2C(C1=O)C1C=C(CCCO)C2C(c2cccs2)N1Cc1cc2c(cc1Br)OCO2 (stereo not drawn) , what is its reported composite z-score?
Result: 0.0923

Task: # get_value(readout='composite z-score', item= CCOC(=O)C1=C[C@@H](C(C)(C)C)N(S(=O)(=O)c2ccc(C)cc2)[C@H]1c1ccccc1 )
Result: 0.0194

Task: # get_value(readout='composite z-score', item= COc1cc(CO)cc(I)c1O[C@H]1C=C(C(=O)NCCO)C[C@@H](NCC2CCCCC2)[C@@H]1O )
Result: -0.0719

Task: Could you share which composite z-score value was measured for CN1C(=O)C2C(C1=O)C1C=C(CCCO)C2C(C2CC2)N1Cc1cc2c(cc1Br)OCO2 (stereo not drawn) ?
Result: 0.183

Task: Would you mind telling me what composite z-score value was observed for [N-]=[N+]=NCc1ccccc1[C@@H]1OC(c2ccc(OCCCO)cc2)=N[C@]1(Cc1ccccc1)C(=O)NCCN1CCOCC1 ?
Result: 0.242

###

procedure_text: small-molecule binders of probe aNOTCH3, primary screen, biochemical, small-molecule microarray, 635/667 nm fluorescence (AID 1120);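 further: probe is a biotin-tagged antibody raised against NOTCH3 rather than NOTCH3 protein; score merges spot fluorescence near 667 nm with spot signal to noise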
settings: higher = more signal
Think of 0.08 as a floor: if composite z-score stands on it or above, it is Condition met; beneath it, Condition not met.

Task: Assess whether reported composite z-score for COCCOC(=O)N1C(=O)[C@@]2(c3cc(C#CCC(C(=O)OC)C(=O)OC)ccc31)[C@H](C(=O)NC[C@H](O)c1ccccc1)[C@H]1C(=O)O[C@H](c3ccccc3)[C@H](c3ccccc3)N1[C@@H]2c1ccc(OCCO)cc1 sits at 0.08 or higher.
Result: Condition met

Task: Would you say Cc1c(NC(=O)/C(C#N)=C/c2ccccc2Cl)c(=O)n(-c2ccccc2)n1C shows composite z-score at minimum 0.08?
Result: Condition not met

Task: Identify whether the reported composite z-score of the following compound is 0.08 or greater: O=C1O[C@H](c2ccccc2)[C@H](c2ccccc2)N2[C@H]1[C@@H](C(=O)N1CCCCCCC1)[C@]1(C(=O)Nc3ccc(C#CC4(O)CCCCCC4)cc31)[C@H]2c1ccc(O)cc1
Result: Condition met

Task: Could you please find out whether CCOC(=O)C=Cc1ccccc1O has composite z-score that meets 0.08 or exceeds it?
Result: Condition met

Task: // inclusive: composite z-score at least 0.08? input: CCCCCCCCCCC(O)C1C=CC2C(=O)N(c3ccccc3)C(=O)C2N1Nc1ccccc1F (stereo unspecified)
Result: Condition not met

Task: Has CCOC(=O)C=Cc1cc(F)ccc1O a recorded composite z-score greater than or equal to 0.08?
Result: Condition not met

Task: State whether the measured composite z-score reaches 0.08, counting equality as reaching it, for COc1ccc(C(O)C2C=CC3C(=O)N(c4ccccc4)C(=O)C3N2Nc2ccccc2F)cc1 (stereo unspecified)
Result: Condition met

Task: Would you say O=C1C2C=CC(C(O)c3cccc(O)c3)N(Nc3ccccc3)C2C(=O)N1c1ccccc1 (stereo unspecified) shows composite z-score at minimum 0.08?
Result: Condition met

Task: Answer whether composite z-score of Cc1ccc(F)cc1S(=O)(=O)N[C@@H]1CCN(Cc2cccc3[nH]ccc23)C1 is greater than or equal to 0.08.
Result: Condition not met

Task: hey, is composite z-score for this one >= 0.08? CC1(C)C(=O)C(c2ccccc2)=C2CN3C(=O)N(CCc4ccccc4)C(=O)C3(Cc3ccc(F)cc3)C=C21 (stereo unspecified)
Result: Condition met

Task: In plain terms: is recorded composite z-score at least 0.08 for COc1ccc(CCNC(=O)[C@@]2(Cc3ccccc3I)c3ccccc3C(=O)N(Cc3ccccc3Cl)[C@H]2c2ccc(CO)cc2)cc1 ?
Result: Condition met

Task: Dear colleague, could you confirm whether O=C1OCCC/C=C\[C@H]2OC34C=CCN(c5ccc6ccccc6c5)C(=O)[C@H]3N(CCCO)C(=O)[C@@H]4C12 (stereo partly specified) has composite z-score at or above 0.08?
Result: Condition not met

Task: Determine whether this compound has composite z-score no lower than 0.08: O=C(NCC(O)CO)[C@@]1(CCS(=O)(=O)c2ccccc2)COC(c2ccc(OCCCO)cc2)=N1 (stereo partly specified)
Result: Condition met

Task: # check: composite z-score of C[C@]1(C(=O)O)c2ccccc2C(=O)N(Cc2ccc(OC(F)(F)F)cc2)[C@H]1c1ccc(CO)cc1 is greater than or equal to 0.08
Result: Condition not met

Task: In plain terms: is recorded composite z-score at least 0.08 for COc1ccc(C(O)C2C=CC3C(=O)N(c4ccccc4)C(=O)C3N2Nc2ccc(C(C)C)cc2)c2ccccc12 (stereo unspecified) ?
Result: Condition met

Task: Item C=C(COC)/C(=C/C[C@@H](OC(=O)c1ccncc1)c1ccccc1OCCO)c1cc(C(=O)OC)ccc1OC with composite z-score of 0.08 or above?
Result: Condition not met

Task: Does composite z-score meet or surpass 0.08 for COCCOC(=O)N1C(=O)[C@@]2(c3cc(C#CCCO)ccc31)[C@H](C(=O)N1CCCCCCC1)[C@H]1C(=O)O[C@H](c3ccccc3)[C@H](c3ccccc3)N1[C@@H]2c1ccccc1OCCO ?
Result: Condition met

Task: Tell me whether composite z-score is at least 0.08 here: CN1C(=O)C2C=CC(C(O)c3ccc(F)cc3)N(NC(=O)OC(C)(C)C)C2C1=O (stereo unspecified)
Result: Condition not met

Task: Has COc1cc(CO)cc(I)c1O[C@H]1C=C(C(=O)NCCO)C[C@@H](NCC2CCCCC2)[C@@H]1O a recorded composite z-score greater than or equal to 0.08?
Result: Condition met

Task: Quick check: does CC(C)[Si]1(C(C)C)OCc2cc(-c3ccc(-c4ccc(Cl)c(Cl)c4)o3)nc(CCc3ccccc3)c21 have composite z-score greater than or equal to 0.08?
Result: Condition not met

Task: # check: composite z-score of COCCOC(=O)N1C(=O)[C@@]2(c3cc(C#CC4=CCCCC4)ccc31)[C@H](C(=O)N1CCCCCCC1)[C@H]1C(=O)O[C@H](c3ccccc3)[C@H](c3ccccc3)N1[C@@H]2c1ccc(OCCO)cc1 is greater than or equal to 0.08
Result: Condition met

Task: Is it the case that C=C(/C(=C/C[C@H](OC(=O)c1ccncc1)c1cccc(OCCO)c1)c1cnc2ccccc2c1)C(C)C has composite z-score reaching or exceeding 0.08?
Result: Condition not met

Task: Quick check: does CCOC(=O)C1=CCN(S(=O)(=O)c2ccc(C)cc2)C1c1ccccc1 (stereo unspecified) have composite z-score greater than or equal to 0.08?
Result: Condition met

Task: Does C=C(C)[C@@H]1CC=C(C(O)C2C=CC3C(=O)N(c4ccccc4)C(=O)C3N2Nc2ccc(C#N)cc2)CC1 (stereo partly specified) have a reported composite z-score of at least 0.08?
Result: Condition met

Task: Decide: is the reported value of composite z-score for NC(=O)N1C(=O)C2C(C1=O)C1C=C(CCCO)C2C(C2CC2)N1Cc1cccc(OC(F)(F)F)c1 (stereo unspecified) equal to or greater than 0.08?
Result: Condition not met

Task: Can C[C@@]12COC[C@]13C=C(Br)[C@H](C2)[C@@]1(CO1)C3=O be said to have composite z-score at or above 0.08?
Result: Condition not met

Task: Please tell me: is the compound COC(=O)[C@@]1(Cc2ccccc2CN=[N+]=[N-])N=C(c2ccc(OCCCO)cc2)O[C@H]1c1ccccc1CN=[N+]=[N-] at or over 0.08 in terms of composite z-score?
Result: Condition not met

Task: Please indicate if the recorded composite z-score for CC(C)[C@H]1NC(=O)[C@@]23C(=O)N[C@@H](Cc4ccccc4)C2[C@H](C)[C@@]2(C)O[C@H]2C3/C=C/C/C=C\CNC(=O)[C@H](Cc2ccccc2)NC1=O (stereo partly specified) meets or exceeds 0.08.
Result: Condition met

Task: # check: composite z-score of C=C(/C(=C/C[C@@H](OC(=O)c1ccncc1)c1cccc(OCCO)c1)c1cnc2ccccc2c1)C(C)C is greater than or equal to 0.08
Result: Condition met

Task: Could you verify whether the entry CCCNC(=O)[C@@]1(Sc2ccc(C)cc2)CC(=O)N(C2CCCCC2)[C@@H]1c1ccc(CO)cc1I shows composite z-score of no less than 0.08?
Result: Condition not met

Task: Hi, just wondering whether NCCCCCNC(=O)[C@H]1C[C@H]2C(=O)N[C@@H](Cc3ccccc3)C(=O)N2[C@H]1c1ccc(O)cc1 shows composite z-score of 0.08 or higher.
Result: Condition met

Every entry's value here was drawn from PubChem BioAssay.
